The values you see were collected from the kinase profiling compilation of Christmann-Franck et al. (2016).

Target: TLK2 (human)
Assay: KINOMEscan competition binding
Conditions: compound 10.0 µM

[
  {
    "smiles-record": "C=CC(=O)Nc1cc(NC(=O)c2ccc(C)c(NC(=O)c3ccno3)c2)cc(C(F)(F)F)c1",
    "tested-system": "TLK2 (human)",
    "measure-unit": "%",
    "kinase still bound, per cent of control": 100
  },
  {
    "smiles-record": "Nc1ccc(-c2ccc3ncc4ccc(=O)n(-c5cccc(C(F)(F)F)c5)c4c3c2)cn1",
    "tested-system": "TLK2 (human)",
    "measure-unit": "%",
    "kinase still bound, per cent of control": 100
  },
  {
    "smiles-record": "CN(C)C/C=C/C(=O)Nc1cccc(Nc2ncc3c(n2)N(C)c2ccccc2C(=O)N3C)c1",
    "tested-system": "TLK2 (human)",
    "measure-unit": "%",
    "kinase still bound, per cent of control": 88
  },
  {
    "smiles-record": "CC[C@@H]1C(=O)N(C)c2cnc(Nc3ccc(C(=O)NC4CCN(C)CC4)cc3OC)nc2N1C1CCCC1",
    "tested-system": "TLK2 (human)",
    "measure-unit": "%",
    "kinase still bound, per cent of control": 100
  },
  {
    "smiles-record": "N#Cc1c(NC(=O)c2cccc3ccccc23)sc2c1CCCC2",
    "tested-system": "TLK2 (human)",
    "measure-unit": "%",
    "kinase still bound, per cent of control": 100
  }
]
